For each of the sequences below, state its apparent KD of K4 kissing-loop reporter.
Tested on: K4 kissing-loop RNA reporter;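 also: bound reporter read as fluorescence of individual clusters on recovered sequencing chips by microscopy, with normalized cluster intensities fitted with a binding model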
Test: apparent KD of K4 kissing-loop reporter; higher = weaker reporter binding
Conditions: Eterna round: R107; input ligand: FMN 200 uM
Numbers only, in nM.

1. AAUAAUGAUGUUUAGGAUUUCCGAAUGGAAGGAGCGUGCGAAAGCACAGGUAGGUCGCCAGUGAUGUUGGGACCUGAGCAUCAAA [#SwitchBubble 6 #K4Late]
681

For each entry beneath this line, provide reported apparent KD of K4 kissing-loop reporter.
1. UAACGGCCCAGUGAUGUUGGGUGGAGGCGGCGAGGACCGGUACGGCCGCCACUCGGCGCACAGGCGGAGUGAUGUUGCGCGUAAA [Same State Tryptophan A GF 13]
2. UUCAGUGAUGUUGAACACUGUUGUAUAAACUAGGAUAUGCUGAUAAGCAGAAGGAGUGAUGUUCCGUUCAACAUCAGAAUUAAAU [#08 K4 FMN A Exclusion]
3. AAUUAAUACAGAAGGAGCGUGAAAUUAUCUAUUUUUUUUUUAGCUAGUGAUGUUAGCAUUUCACAGGUAGGUCGCUGUAUAUUUA [JR_SSArginiB_Sub009]
4. AUUGUCGGAGUCUGUGCUGACUGACGAGCAAAGGAUAUGUUAUUAAACAGAAGGUUGUGCUGCUUAAGUGAUGUUUUUGGAGCUA [theeternabot_sameState_KL_FMN_A_26]
5. AAAGUUGAUGAGUUGGGUAUGUGUUCCGAAGGAGCGAGAAUUAUCUCAGGUAGGUCGCGGAACAUGAGUGAUGUUCAUGUAUAAA [KL-XArg-A7 #analogue]
6. GGUCGAGUGAUGUUCGAUGUUAUGCAUUCAGAGGAUAUAGGAUUGGCUAGAAGGCUGAAUCGAUCUUCGAGUGAUGUUCGAGGAU [Same State FMN A GF 8]
7. AAUAGAUCAUUAUAGUGAUAAAUGCCUGAUACCAGUGAGAGAUGGCACCCUUGGCAGCAGAGAUGAGUGAUGUUCAGACUGUAAA [theeternabot_sameState_KL_Theo_A_11]
8. UGAUACCAGACUGAUACCAGCCACAGAGUCAAAGACUCUGAAAAGGAAACCAGUGAUGUUGGCCCUUGGCAGCAGUCUGGUAUCU [TheoBX 15 #SwitchBubble #StaticStem]

Result string:
1. 242
2. 662
3. 148
4. 308
5. 345
6. 116
7. 114
8. 191
